- Target desc: UniProt Q05397
- Sequence (Q05397 whole entry): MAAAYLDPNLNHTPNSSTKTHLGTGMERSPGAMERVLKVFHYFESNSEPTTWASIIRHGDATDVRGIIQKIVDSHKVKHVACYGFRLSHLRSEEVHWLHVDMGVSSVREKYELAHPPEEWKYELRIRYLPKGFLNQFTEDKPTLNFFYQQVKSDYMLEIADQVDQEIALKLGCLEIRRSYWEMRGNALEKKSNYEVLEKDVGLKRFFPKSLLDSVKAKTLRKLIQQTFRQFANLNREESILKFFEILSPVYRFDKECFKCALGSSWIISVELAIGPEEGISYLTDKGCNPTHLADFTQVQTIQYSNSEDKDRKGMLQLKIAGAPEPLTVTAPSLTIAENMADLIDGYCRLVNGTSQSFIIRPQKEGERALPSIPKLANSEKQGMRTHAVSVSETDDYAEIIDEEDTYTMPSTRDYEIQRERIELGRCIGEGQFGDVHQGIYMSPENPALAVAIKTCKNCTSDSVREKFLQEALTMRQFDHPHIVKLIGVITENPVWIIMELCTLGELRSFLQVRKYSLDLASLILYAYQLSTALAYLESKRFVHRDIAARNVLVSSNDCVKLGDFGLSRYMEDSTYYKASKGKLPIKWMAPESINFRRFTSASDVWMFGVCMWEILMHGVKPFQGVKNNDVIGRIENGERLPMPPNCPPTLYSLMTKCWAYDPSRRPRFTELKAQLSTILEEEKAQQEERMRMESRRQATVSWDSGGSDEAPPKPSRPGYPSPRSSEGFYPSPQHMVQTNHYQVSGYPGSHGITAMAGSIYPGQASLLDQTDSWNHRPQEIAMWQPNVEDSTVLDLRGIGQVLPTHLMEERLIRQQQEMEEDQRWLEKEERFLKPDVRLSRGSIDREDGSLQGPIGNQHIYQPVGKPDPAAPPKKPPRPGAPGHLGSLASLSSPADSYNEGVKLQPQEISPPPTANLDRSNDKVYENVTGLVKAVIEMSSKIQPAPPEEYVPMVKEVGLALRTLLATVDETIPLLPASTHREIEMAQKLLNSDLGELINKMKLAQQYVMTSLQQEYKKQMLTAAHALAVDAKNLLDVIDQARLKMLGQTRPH
- Assay remarks: Fak degradation, immunoblotting in PC3 cells
- Type: cell-based
- Test conditions: PC-3; degradation maximum, PC3 cells, 24 hour treatment, n = 3
Quantity kind: Dmax (%)

Consider the reported Dmax for these compounds:
>>> reading("Cc1ncsc1-c1ccc(CNC(=O)[C@@H]2C[C@@H](O)CN2C(=O)[C@@H](NC(=O)CCOCCOc2ccc(Nc3ncc(C(F)(F)F)c(NCc4cccc(N(C)S(C)(=O)=O)c4)n3)cc2)C(C)(C)C)cc1")
99
>>> reading("Cc1ncsc1-c1ccc(CNC(=O)[C@@H]2C[C@H](O)CN2C(=O)[C@@H](NC(=O)CCOCCOc2ccc(Nc3ncc(C(F)(F)F)c(NCc4cccc(N(C)S(C)(=O)=O)c4)n3)cc2)C(C)(C)C)cc1")
0

I. CNC(=O)c1ccc(Nc2ncc(C(F)(F)F)c(NCc3nccnc3N(C)S(C)(=O)=O)n2)cc1 [Defactinib, defactinib, reference compound]
II. Cc1ncsc1-c1ccc(CNC(=O)[C@@H]2C[C@@H](O)CN2C(=O)[C@@H](NC(=O)CCOCCOCCOCCOCCOc2ccc(Nc3ncc(C(F)(F)F)c(NCc4cccc(N(C)S(C)(=O)=O)c4)n3)cc2)C(C)(C)C)cc1
Exercise: Identify the item whose Dmax is the smaller number: I or II Answer with the label corresponding to your selection.
Key: I
(I: 0%, II: 91%)

###

- Assay remarks: Pharmacokinetics of intraperitoneal or intravenous injection in CD1 mice
- Type: in vivo
- Test conditions: male, CD1, mouse, plasma, iv, 1 mg/kg, IV 1.0 mg/kg, CD1 mice plasma, 0.25 h; read-out: Mean
Quantity kind: concentration at 0.25 h (ng/mL)

>>> reading("Cc1ncsc1-c1ccc(CNC(=O)[C@@H]2C[C@@H](O)CN2C(=O)[C@@H](NC(=O)CCOCCCOc2ccc(Nc3ncc(C(F)(F)F)c(NCc4cccc(N(C)S(C)(=O)=O)c4)n3)cc2)C(C)(C)C)cc1")
384
>>> reading("Cc1ncsc1-c1ccc(CNC(=O)[C@@H]2C[C@@H](O)CN2C(=O)[C@@H](NC(=O)COCCOc2ccc(Nc3ncc(C(F)(F)F)c(NCc4cccc(N(C)S(C)(=O)=O)c4)n3)cc2)C(C)(C)C)cc1")
39.8
>>> reading("Cc1ncsc1-c1ccc(CNC(=O)[C@@H]2C[C@@H](O)CN2C(=O)[C@@H](NC(=O)CCOCCOc2ccc(Nc3ncc(C(F)(F)F)c(NCc4cccc(N(C)S(C)(=O)=O)c4)n3)cc2)C(C)(C)C)cc1")
65.1

I. Cc1ncsc1-c1ccc(CNC(=O)[C@@H]2C[C@@H](O)CN2C(=O)[C@@H](NC(=O)COCCCOc2ccc(Nc3ncc(C(F)(F)F)c(NCc4cccc(N(C)S(C)(=O)=O)c4)n3)cc2)C(C)(C)C)cc1
II. CN(c1cccc(CNc2nc(Nc3ccc(OCCCOCCC(=O)NCCOc4cccc5c4C(=O)N(C4CCC(=O)NC4=O)C5=O)cc3)ncc2C(F)(F)F)c1)S(C)(=O)=O (centres unmarked)
Exercise: Which is greater in concentration at 0.25 h, the first item I or the second item II ? Answer with the label corresponding to your selection.
Key: I

###

- Assay remarks: Pharmacokinetics of intraperitoneal or intravenous injection in CD1 mice
- Assay type: in vivo
- Test conditions: male, CD1, mouse, plasma, ip, 10 mg/kg, IP 10 mg/kg, CD1 mice plasma, 4 h; read-out: Mean
Quantity kind: concentration at 4 h (ng/mL)

>>> reading("CN(c1cccc(CNc2nc(Nc3ccc(OCCCOCCC(=O)NCCOc4cccc5c4C(=O)N(C4CCC(=O)NC4=O)C5=O)cc3)ncc2C(F)(F)F)c1)S(C)(=O)=O (stereo not drawn) [Compound 107]")
13.7

P. Cc1ncsc1-c1ccc(CNC(=O)[C@@H]2C[C@@H](O)CN2C(=O)[C@@H](NC(=O)COCCCOc2ccc(Nc3ncc(C(F)(F)F)c(NCc4cccc(N(C)S(C)(=O)=O)c4)n3)cc2)C(C)(C)C)cc1 [Compound 101]
Q. Cc1ncsc1-c1ccc(CNC(=O)[C@@H]2C[C@@H](O)CN2C(=O)[C@@H](NC(=O)COCCOc2ccc(Nc3ncc(C(F)(F)F)c(NCc4cccc(N(C)S(C)(=O)=O)c4)n3)cc2)C(C)(C)C)cc1 [Compound 100]
Exercise: Identify the item whose concentration at 4 h is the smaller number: P or Q Answer with the label corresponding to your selection.
Key: Q

This collection of values is drawn from patent US20200038513A1.
